assay: in vivo; conditions: CD-1, mouse, inhaled or intranasal
Square brackets hold non-standard residues; d marks the D form. Peptide text beside a SMILES is read from it. Aib = CC(C)(N)C(=O)O
readout name: bioavailability (%)

In [3]: df
Out[3]:
                                   compound     readout_name  test_result
0  CC(C)(NC(=O)[C@H](N)Cc1c[nH]c2ccccc12)C(=O)O [D-Trp-Aib] (H-[dW]-[Aib]-OH)  bioavailability         65.5

* * *

assay: in vivo; conditions: CD-1, mouse, iv, 50 mg/kg
Square brackets hold non-standard residues; d marks the D form. Peptide text beside a SMILES is read from it. Aib = CC(C)(N)C(=O)O
readout name: clearance

>>> print(df.to_string())
                                   compound  readout_name  test_result
0  CC(C)(NC(=O)[C@H](N)Cc1c[nH]c2ccccc12)C(=O)O [D-Trp-Aib] (H-[dW]-[Aib]-OH)     clearance  1.23 L/h/kg

* * *

test: in vivo; details: CD-1, mouse, po, 50 mg/kg
Square brackets hold non-standard residues; d marks the D form. Peptide text beside a SMILES is read from it. Aib = CC(C)(N)C(=O)O
readout name: half-life (min)

>>> df
                                   compound  unit_info  test_result
0  CC(C)(NC(=O)[C@H](N)Cc1c[nH]c2ccccc12)C(=O)O [D-Trp-Aib] (H-[dW]-[Aib]-OH)        min         64.2

* * *

assay: in vivo; conditions: CD-1, mouse, inhaled or intranasal, 20 mg/kg
Square brackets hold non-standard residues; d marks the D form. Peptide text beside a SMILES is read from it. Aib = CC(C)(N)C(=O)O
readout name: AUC(0-inf)

>>> print(df.to_string())
                                   molecule   test_result
0  CC(C)(NC(=O)[C@H](N)Cc1c[nH]c2ccccc12)C(=O)O [D-Trp-Aib] (H-[dW]-[Aib]-OH)  11.4 µg·h/mL

* * *

experiment: Kinetic aggregation assay, turbidity at 405 nm (Example 8); assay type: physicochemical; conditions: hIAPP 22-29 analogues incubated for 1 week
readout name: endpoint turbidity

In [3]: df
Out[3]:
   record_sequence        readout_name   test_result
0         NVGAILSS  endpoint turbidity  lower extent
1         NAGAILSS  endpoint turbidity  lower extent
2         NLGAILSS  endpoint turbidity  lower extent

* * *

test: in vivo; conditions: CD-1, mouse, po, 50 mg/kg
Square brackets hold non-standard residues; d marks the D form. Peptide text beside a SMILES is read from it. Aib = CC(C)(N)C(=O)O
readout name: Tmax

>>> df
                                   molecule  test_result
0  CC(C)(NC(=O)[C@H](N)Cc1c[nH]c2ccccc12)C(=O)O [D-Trp-Aib] (H-[dW]-[Aib]-OH)          1 h

* * *

assay: in vivo; settings: CD-1, mouse, po, 50 mg/kg
Square brackets hold non-standard residues; d marks the D form. Peptide text beside a SMILES is read from it. Aib = CC(C)(N)C(=O)O
readout name: AUC(0-inf) (ng·h/mL)

>>> df
                                   compound  unit_info  test_result
0  CC(C)(NC(=O)[C@H](N)Cc1c[nH]c2ccccc12)C(=O)O [D-Trp-Aib] (H-[dW]-[Aib]-OH)    ng·h/mL        15700
